// ICW Screen (ICW Inhibition) lookup, one value per entry
- Tgt: EGFR (Homo sapiens, UniProt P00533)
- Construct: host or cells: A431
- Sequence (P00533 25-1210): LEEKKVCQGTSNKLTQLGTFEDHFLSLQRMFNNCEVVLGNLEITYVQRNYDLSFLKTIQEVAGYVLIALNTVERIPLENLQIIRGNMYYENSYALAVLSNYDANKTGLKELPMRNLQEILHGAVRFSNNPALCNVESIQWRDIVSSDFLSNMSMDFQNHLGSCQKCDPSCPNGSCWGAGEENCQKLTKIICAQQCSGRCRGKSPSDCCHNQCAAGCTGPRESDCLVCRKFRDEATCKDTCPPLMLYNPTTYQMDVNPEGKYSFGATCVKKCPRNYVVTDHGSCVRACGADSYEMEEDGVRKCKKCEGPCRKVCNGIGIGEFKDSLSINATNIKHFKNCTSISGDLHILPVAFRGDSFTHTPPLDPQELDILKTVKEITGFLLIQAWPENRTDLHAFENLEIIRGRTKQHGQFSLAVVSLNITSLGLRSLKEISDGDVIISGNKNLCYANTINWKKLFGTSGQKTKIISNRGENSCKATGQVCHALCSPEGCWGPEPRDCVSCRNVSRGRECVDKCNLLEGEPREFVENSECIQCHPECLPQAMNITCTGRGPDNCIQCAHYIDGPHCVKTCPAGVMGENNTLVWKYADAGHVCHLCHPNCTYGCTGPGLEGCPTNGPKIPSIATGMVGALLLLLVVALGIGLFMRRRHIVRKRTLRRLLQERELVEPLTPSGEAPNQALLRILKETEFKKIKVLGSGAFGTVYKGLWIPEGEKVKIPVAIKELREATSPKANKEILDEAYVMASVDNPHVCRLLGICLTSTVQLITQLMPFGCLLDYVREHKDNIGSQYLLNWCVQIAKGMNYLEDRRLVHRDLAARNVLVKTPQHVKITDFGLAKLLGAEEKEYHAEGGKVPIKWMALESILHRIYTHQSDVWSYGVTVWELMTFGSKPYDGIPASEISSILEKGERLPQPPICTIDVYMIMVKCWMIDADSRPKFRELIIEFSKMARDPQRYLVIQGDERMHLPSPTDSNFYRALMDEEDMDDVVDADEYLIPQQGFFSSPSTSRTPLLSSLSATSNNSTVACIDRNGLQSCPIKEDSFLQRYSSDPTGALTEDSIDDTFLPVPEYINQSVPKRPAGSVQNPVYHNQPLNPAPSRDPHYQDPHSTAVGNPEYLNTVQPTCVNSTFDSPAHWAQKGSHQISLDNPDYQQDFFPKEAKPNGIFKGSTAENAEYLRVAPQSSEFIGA
- Experiment summary: EGFR in-cell Western (ICW) screening protocol (EGFR inhibition assay);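 note: compound at 125 µM in assay in A431 cells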
- Assay type: cell-based
Property measured: ICW Screen (ICW Inhibition)

>>> result("C=CCN(CC=C)S(=O)(=O)c1ccc(NC(=S)NC(=O)/C=C/c2ccc(F)cc2)cc1 [AD4-12157]")
26.73
>>> result("COc1ccc(CC(=O)NC(=S)Nc2ccc(S(=O)(=O)Nc3nc(C)cc(C)n3)cc2)cc1 [AD4-12266]")
29.289
>>> result("Cc1cc(C)nc(NS(=O)(=O)c2ccc(NC(=S)NC(=O)COc3ccc(Br)cc3Cl)cc2)n1 [AD4-12158]")
36.727
>>> result("CC(=O)NC(=S)Nc1ccc(S(=O)(=O)N2CCc3ccccc32)cc1 [AD4-10623]")
46.185
>>> result("Cc1ccc(NS(=O)(=O)c2ccc(NC(=S)NC(=O)C3CCCCC3)cc2)cc1C [AD4-11417]")
40.711
>>> result("Cc1cc(Cl)ccc1OCC(=O)NC(=S)Nc1ccc(S(=O)(=O)N2CCCCC2)cc1 [AD4-11402]")
33.635
>>> result("COc1ccc(NS(=O)(=O)c2ccc(NC(=S)NC(=O)COc3ccc(Cl)cc3C)cc2)cc1 [AD4-12196]")
34.379
>>> result("CN(c1ccccc1)S(=O)(=O)c1ccc(NC(=S)NC(=O)C2CC2)cc1 [AD4-12164]")
45.64
>>> result("COc1ccc(NS(=O)(=O)c2ccc(NC(=S)NC(=O)C(C)C)cc2)cc1 [AD4-11971]")
44.908
>>> result("CC(C)C(=O)NC(=S)Nc1ccc(S(=O)(=O)NCCc2ccccc2)cc1 [AD4-10611]")
38.285
>>> result("C=CCN(CC=C)S(=O)(=O)c1ccc(NC(=S)NC(=O)/C=C/c2cccs2)cc1 [AD4-11979]")
39.775
>>> result("COc1ccc(NS(=O)(=O)c2ccc(NC(=S)NC(=O)C3CCCC3)cc2)cc1 [AD4-12119]")
55.94
>>> result("COc1cc(NS(=O)(=O)c2ccc(NC(=S)NC(=O)/C=C/c3ccccc3)cc2)nc(OC)n1 [AD4-12262]")
40.146
>>> result("Cc1cc(C)nc(NS(=O)(=O)c2ccc(NC(=S)NC(=O)/C=C/c3ccc(F)cc3)cc2)n1 [AD4-11871]")
45.776
>>> result("CN(Cc1ccccc1)S(=O)(=O)c1ccc(NC(=S)NC(=O)C2CCCCC2)cc1 [AD4-11410]")
28.101
>>> result("Cc1ccc(NS(=O)(=O)c2ccc(NC(=S)NC(=O)C3CCCCC3)cc2)cc1C [AD4-10708]")
37.233
>>> result("CC(C)CC(=O)NC(=S)Nc1ccc(S(=O)(=O)N2CCc3ccccc32)cc1 [AD4-10626]")
50.05
>>> result("CCCC(=O)NC(=S)Nc1ccc(S(=O)(=O)Nc2ccc(OCC)cc2)cc1 [AD4-12183]")
37.695
>>> result("O=C(NC(=S)Nc1ccc(S(=O)(=O)NC2CCCCC2)cc1)C1CC1 [AD4-12171]")
37.375
>>> result("CN1CCN(S(=O)(=O)c2ccc(NC(=S)NC(=O)/C=C/c3cccs3)cc2)CC1 [AD4-12060]")
34.272
>>> result("COc1cc(NS(=O)(=O)c2ccc(NC(=S)NC(=O)/C=C/c3ccco3)cc2)ncn1 [AD4-11870]")
30.849
>>> result("COc1cc(NS(=O)(=O)c2ccc(NC(=S)NC(=O)/C=C/c3ccccc3)cc2)nc(OC)n1 [AD4-11369]")
43.546
>>> result("CC(C)C(=O)NC(=S)Nc1ccc(S(=O)(=O)N(C)Cc2ccccc2)cc1 [AD4-12051]")
28.852
>>> result("CCC(c1ccccc1)S(=O)(=O)c1ccc(NC(=S)NC(=O)C(C)C)cc1 (stereo not shown) [AD4-12029]")
30.376
>>> result("O=C(Cc1ccccc1)NC(=S)Nc1ccc(S(=O)(=O)Nc2ccccc2)cc1 [AD4-11416]")
53.517
>>> result("CCOc1ccc(NS(=O)(=O)c2ccc(NC(=S)NC(=O)CC)cc2)cc1 [AD4-11409]")
74.94
>>> result("O=C(NC(=S)Nc1ccc(S(=O)(=O)NCCc2ccccc2)cc1)C1CCCC1 [AD4-10609]")
43.828
>>> result("O=C(CCc1ccccc1)NC(=S)Nc1ccc(S(=O)(=O)N2CCOCC2)cc1 [AD4-12147]")
26.967
>>> result("O=C(COc1ccc(Cl)cc1Cl)NC(=S)Nc1ccc(S(=O)(=O)NC2CCCCC2)cc1 [AD4-12075]")
25.956
>>> result("COc1ccc(CC(=O)NC(=S)Nc2ccc(S(=O)(=O)Nc3ccc(C)c(C)c3)cc2)cc1 [AD4-11418]")
34.067
>>> result("CCOC(=O)CCC(=O)NC(=S)Nc1ccc(S(=O)(=O)Nc2cc(OC)nc(OC)n2)cc1 [AD4-11980]")
25.235
>>> result("CCN(c1ccccc1)S(=O)(=O)c1ccc(NC(=S)NC(=O)C2CCCCC2)cc1 [AD4-11407]")
27.585
>>> result("CC(C)CC(=O)NC(=S)Nc1ccc(S(=O)(=O)NCCc2ccccc2)cc1 [AD4-10608]")
62.846
>>> result("COc1ccc(/C=C/C(=O)NC(=S)Nc2ccc(S(=O)(=O)Nc3nc(C)cc(C)n3)cc2)cc1 [AD4-11646]")
37.949

All figures here come from patent US20140179681A1.
